# tested_system: T1, human IL-2 (recombinant IL-2, Humanzyme) (human, UniProt P60568 21-153)
# T1 construct: It may include the signal peptide; also called hIL-2; interleukin-2
# T1 sequence (P60568 21-153 limits assumed): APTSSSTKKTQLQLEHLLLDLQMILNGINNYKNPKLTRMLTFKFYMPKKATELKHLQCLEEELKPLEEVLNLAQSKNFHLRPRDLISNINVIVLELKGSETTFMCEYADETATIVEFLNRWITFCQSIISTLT
# experimental_details: SPR as in Example 1 (IgG captured, IL-2 injected)

{"columns": ["binder", "result_units", "kon"],
 "data": [
  ["F5.1.11.02 (antibody, V domains shown, also called F5111.2; 5.1.11.2) VH: QLQLQESGPGLVKPSQTLSLTCTVSGGSISSGGYYWSWIRQHPGKGLEWIGYIYKSGSAYYSPSLKSRVTISVDTSKNQFSLKLSSVTAADTAVYYCARTPTVTGDWFDPWGRGTLVTVSS VL: NFMLTQPHSVSESPGKTVTISCTRSSGSIASNYVQWYQQRPGSSPTTVIYEDNQRPSGVPDRFSGSIDSSSNSASLTISGLKTEDEADYYCQTYDSIDVYFGGGTKLTVL", "M⁻¹ s⁻¹", "5.05e+06"],
  ["F5.1.11.04 (antibody, V domains shown) VH: QLQLQESGPGLVKPSQTLSLTCTVSGGSISSGGYYWSWIRQHPGKGLEWIGYIYYSGSNYWNPSLKSRVTISVDTSKNQFSLKLSSVTAADTAVYYCARTPTVTGDWFDPWGRGTLVTVSS VL: NFMLTQPHSVSESPGKTVTISCTRSSGSIASNYVQWYQQRPGSSPTTVIYEDNQRPSGVPDRFSGSIDSSSNSASLTISGLKTEDEADYYCQSYDTRDVVFGGGTKLTVL", "M⁻¹ s⁻¹", 734000],
  ["F5.1.11 (antibody, V domains shown) VH: QLQLQESGPGLVKPSQTLSLTCTVSGGSISSGGYYWSWIRQHPGKGLEWIGYIYYSGSTYYNPSLKSRVTISVDTSKNQFSLKLSSVTAADTAVYYCARTPTVTGDWFDPWGRGTLVTVSS VL: NFMLTQPHSVSESPGKTVTISCTRSSGSIASNYVQWYQQRPGSSPTTVIYEDNQRPSGVPDRFSGSIDSSSNSASLTISGLKTEDEADYYCQSYDSSNVVFGGGTKLTVL", "M⁻¹ s⁻¹", "3.78e+06"]
]}
